B1: Ankyrin-1, residues 1405 to 1484; numbered along this chain, P16157 (parent)
chain: MKMAVISEHLGLSWAELARELQFSVEDINRIRVENPNSLLEQSVALLNLWVIREGQNANMENLYTALQSIDRGEIVNMLE

Variants of: B1
experimentNotes: abundance fitness (aPCA) (normalised: wild type 0, dead -1); higher = more abundant; growth selection in yeast, the domain comes from the species named
conditionDescription: Homo sapiens
Use true when the recorded abundance fitness is no lower than -0.2; use false when it is lower.

>>> print(df.to_string())
    mutationdescriptor  assignedlabel
 0                L39Q           true
 1                N37C          false
 2                M60A          false
 3                A66R          false
 4                A58N           true
 5                I31P          false
 6                A66V          false
 7                S38W          false
 8                D71G           true
 9                D27T          false
10                G55R          false
11                E41K           true
12                V44I          false
13                W50E          false
14                A58H          false
15                L49F           true
16                I31H          false
17                W50P          false
18                Y64L           true
19                V25T           true
20                N59S           true
21                V25Y           true
22                S43C          false
23                E74K          false
24                S24A          false
25                Q22W          false
26                G55M          false
